Hey, just so you know, these numbers are from ChEMBL document CHEMBL1123230.

- SYSTEM_TESTED: Kappa-type opioid receptor (Homo sapiens, UniProt P41145)
- Sequence (P41145 whole entry): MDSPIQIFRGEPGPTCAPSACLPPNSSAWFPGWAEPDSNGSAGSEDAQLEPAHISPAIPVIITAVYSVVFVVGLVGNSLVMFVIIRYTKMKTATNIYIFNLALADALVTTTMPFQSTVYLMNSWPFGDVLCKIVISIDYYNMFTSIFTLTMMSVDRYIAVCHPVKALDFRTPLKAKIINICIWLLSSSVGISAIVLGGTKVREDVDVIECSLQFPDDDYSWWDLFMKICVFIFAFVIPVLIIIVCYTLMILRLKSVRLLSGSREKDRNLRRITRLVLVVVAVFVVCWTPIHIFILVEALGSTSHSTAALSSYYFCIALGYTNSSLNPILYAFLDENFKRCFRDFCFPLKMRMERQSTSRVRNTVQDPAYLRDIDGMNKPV
- METHOD: Compound was evaluated for the agonistic activity against Opioid receptor kappa 1 in rabbit vas deferens.
- TEST_PARAMETERS: target entry is the homologue from another species
# key: entry, value: IC50

[
  {
    "MOLECULE_SMILES": "CC(C)C[C@H](NC(=O)[C@H](Cc1ccccc1)NC(=O)CNC(=O)CNC(=O)[C@@H](N)Cc1ccc(O)cc1)C(=O)N[C@@H](CCCN=C(N)N)C(=O)N[C@@H](CCCN=C(N)N)C(=O)N[C@H](Cc1c[nH]c2ccccc12)C(=O)N[C@@H](CCCN=C(N)N)C(=O)N1CCC[C@@H]1C(=O)N[C@@H](CCCCN)C(=O)O",
    "IC50 (nM)": 12.8
  },
  {
    "MOLECULE_SMILES": "CC[C@H](C)[C@H](NC(=O)[C@H](CCCN=C(N)N)NC(=O)[C@H](CCCN=C(N)N)NC(=O)[C@H](CC(C)C)NC(=O)[C@H](Cc1ccccc1)NC(=O)CNC(=O)CNC(=O)[C@@H](N)Cc1ccc(O)cc1)C(=O)N[C@@H](CCCN=C(N)N)C(=O)N1CCC[C@@H]1C(=O)N[C@@H](CCCCN)C(=O)O",
    "IC50 (nM)": 12.1
  }
]
